# TEST_SUMMARY: Metabolic stability study in human microsome
# Format: in vitro ADME
# Procedure: Human Microsomes were preincubated with test compound for 10 min at 37° C. in 100 mM phosphate buffer, pH 7.4. The reactions were initiated by adding NADPH or NADPH regenerating system to give a final incubation volume of 400 μL. […] Following precipitation and centrifugation, the amount of compound remaining in the samples were determined by LC-MS/MS. Controls of no NADPH or NADPH regenerating system at zero and 30 min were also prepared and analyzed.
OBSERVATION_TYPE: Human Hepatic Clearance (mL/min/kg)
Numbers only; they are read as mL/min/kg.

The cases that follow already have their Human Hepatic Clearance on record.
- COMPOUND: "CCOC(=O)C1=C(CN2CCOC[C@H]2C(=O)O)NC(c2nccs2)=N[C@H]1c1ccc(Cl)c(Br)c1"
  OBSERVATION_TYPE: "Human Hepatic Clearance"
  OBSERVED: 2.17
- COMPOUND: "COC(=O)C1=C(CN2CC(F)(F)C[C@H]2C(=O)O)NC(c2nc(C(F)(F)F)cs2)=N[C@H]1c1ccc(F)cc1Cl"
  OBSERVATION_TYPE: "Human Hepatic Clearance"
  OBSERVED: 9.34
- COMPOUND: "COC(=O)C1=C(CN2CC(F)(F)C[C@H]2C(=O)O)NC(c2nc(C)cn2C)=NC1c1ccc(F)cc1Cl (stereo partly shown)"
  OBSERVATION_TYPE: "Human Hepatic Clearance"
  OBSERVED: 10.74
- COMPOUND: "COC(=O)C1=C(CN2CCOC[C@H]2C(=O)O)NC(c2nccs2)=N[C@H]1c1ccc(Br)cc1F"
  OBSERVATION_TYPE: "Human Hepatic Clearance"
  OBSERVED: 0.61

Enquiry: Fill in the blank: the reported Human Hepatic Clearance of COC(=O)C1=C(CN2CCOC[C@H]2C(=O)O)NC(c2ncoc2C)=N[C@H]1c1cccc(F)c1Cl is ____.
Return: 2.81

Enquiry: Fill in the blank: the reported Human Hepatic Clearance of CCCOC(=O)C1=C(CN2CCOC[C@H]2C(=O)O)NC(c2nccs2)=N[C@H]1c1ccc(F)cc1Cl is ____.
Return: 2.13

Enquiry: Fill in the blank: the reported Human Hepatic Clearance of COC(=O)C1=C(CN2CCOC[C@H]2C(=O)O)NC(c2nc(C(F)(F)F)cs2)=N[C@H]1c1ccc(F)cc1Cl is ____.
Return: 3.04

Enquiry: Fill in the blank: the reported Human Hepatic Clearance of CCOC(=O)C1=C(CN2CC(F)(F)C[C@H]2C(=O)O)NC(c2nc(C(F)(F)F)cn2C)=N[C@H]1c1ccc(F)cc1Cl is ____.
Return: 8.45

Enquiry: Fill in the blank: the reported Human Hepatic Clearance of COC(=O)C1=C(CN2CCOC[C@H]2C(=O)O)NC(c2nccn2C)=NC1c1ccc(F)cc1Cl (stereo partly shown) is ____.
Return: 2.33

Enquiry: Fill in the blank: the reported Human Hepatic Clearance of COC(=O)C1=C(CN2CC(F)(F)C[C@H]2C(=O)O)NC(c2cc(Cl)cs2)=N[C@H]1c1ccc(F)cc1Cl is ____.
Return: 8.8

Enquiry: Fill in the blank: the reported Human Hepatic Clearance of CCOC(=O)C1=C(CN2CC(F)(F)C[C@H]2C(=O)O)NC(c2nccs2)=N[C@H]1c1ccc(F)cc1F is ____.
Return: 3.5

Enquiry: Fill in the blank: the reported Human Hepatic Clearance of COC(=O)C1=C(CN2CCOC[C@@]2(C)C(=O)O)NC(c2nccs2)=N[C@H]1c1ccc(F)cc1Cl is ____.
Return: 1.42

Enquiry: Fill in the blank: the reported Human Hepatic Clearance of COC(=O)C1=C(CN2C[C@H](C(=O)O)CC(F)(F)C2)NC(c2nccs2)=N[C@H]1c1ccc(F)cc1Cl is ____.
Return: 1.41

# credit: patent US9447086B2
